FYI, the data here is from paper PMC6631223.

- assaySystem: Rat intestinal maltase
- protocolDetails: Glycosidase inhibition: rat intestinal maltase
- appliedConditions: maltose, pH 6.8
pIC50: −log10 of the molar value.
measuredEndpoint: pIC50

Enquiry: I would be grateful if you could share the reported pIC50 for OCCN1C[C@H](O)[C@@H](O)[C@H](O)[C@H]1CO [Miglitol, miglitol, reference compound] .
Return: < 3.00

* * *

- assaySystem: α-Galactosidase (coffee beans) (Coffea arabica, UniProt Q42656)
- Sequence (Q42656 16-378): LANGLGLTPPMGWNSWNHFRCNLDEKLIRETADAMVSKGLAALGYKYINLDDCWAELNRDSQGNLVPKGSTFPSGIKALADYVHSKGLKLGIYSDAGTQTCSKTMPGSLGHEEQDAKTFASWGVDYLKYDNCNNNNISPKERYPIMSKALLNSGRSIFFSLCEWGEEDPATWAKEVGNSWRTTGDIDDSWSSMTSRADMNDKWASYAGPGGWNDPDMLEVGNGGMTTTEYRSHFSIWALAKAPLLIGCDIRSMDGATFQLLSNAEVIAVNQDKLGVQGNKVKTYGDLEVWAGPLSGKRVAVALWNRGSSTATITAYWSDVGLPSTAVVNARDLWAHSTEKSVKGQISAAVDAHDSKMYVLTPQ
pIC50: −log10 of the molar value.
measuredEndpoint: pIC50

Enquiry: Query the reported pIC50 for α-Galactosidase (coffee beans) (Coffea arabica, UniProt Q42656); item: OCCN1C[C@H](O)[C@@H](O)[C@H](O)[C@H]1CO [Miglitol, miglitol, reference compound]
Return: < 3.00

* * *

- assaySystem: Lactase (β-Galactosidase) (Rattus norvegicus)
- Sequence (Q02401 868-1928): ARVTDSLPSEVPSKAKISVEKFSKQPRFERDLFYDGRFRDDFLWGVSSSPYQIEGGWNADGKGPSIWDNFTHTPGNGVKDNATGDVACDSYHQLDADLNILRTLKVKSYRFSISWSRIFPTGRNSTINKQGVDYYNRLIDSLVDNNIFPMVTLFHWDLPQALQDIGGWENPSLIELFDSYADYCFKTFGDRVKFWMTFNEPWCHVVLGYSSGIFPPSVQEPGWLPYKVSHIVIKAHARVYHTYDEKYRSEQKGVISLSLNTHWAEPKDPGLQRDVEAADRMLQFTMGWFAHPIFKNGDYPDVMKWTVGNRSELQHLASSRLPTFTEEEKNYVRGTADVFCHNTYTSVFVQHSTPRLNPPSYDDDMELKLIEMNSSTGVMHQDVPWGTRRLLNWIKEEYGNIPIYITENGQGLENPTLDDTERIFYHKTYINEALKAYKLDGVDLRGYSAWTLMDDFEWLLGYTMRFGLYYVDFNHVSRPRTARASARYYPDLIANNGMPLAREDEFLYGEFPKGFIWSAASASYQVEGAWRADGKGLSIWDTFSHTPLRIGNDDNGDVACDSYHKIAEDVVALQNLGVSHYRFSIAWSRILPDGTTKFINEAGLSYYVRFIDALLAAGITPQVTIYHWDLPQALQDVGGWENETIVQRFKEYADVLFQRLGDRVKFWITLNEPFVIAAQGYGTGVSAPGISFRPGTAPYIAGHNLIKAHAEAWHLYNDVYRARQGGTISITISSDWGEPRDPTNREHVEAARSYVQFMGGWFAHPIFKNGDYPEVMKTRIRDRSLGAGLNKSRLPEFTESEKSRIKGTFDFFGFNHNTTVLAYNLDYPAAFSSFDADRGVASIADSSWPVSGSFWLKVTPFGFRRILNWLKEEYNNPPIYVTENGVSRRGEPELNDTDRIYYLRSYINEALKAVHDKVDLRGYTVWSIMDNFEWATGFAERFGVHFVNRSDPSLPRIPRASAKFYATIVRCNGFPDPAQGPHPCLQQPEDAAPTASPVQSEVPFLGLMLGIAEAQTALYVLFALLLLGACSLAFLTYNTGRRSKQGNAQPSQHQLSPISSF
measuredEndpoint: IC50

Enquiry: I would be grateful if you could share the reported IC50 for OCCN1C[C@H](O)[C@@H](O)[C@H](O)[C@H]1CO [Miglitol, miglitol, reference compound] .
Return: > 1 mM

* * *

- assaySystem: α-Glucosidase (rice) (Oryza sativa subsp. japonica, UniProt Q653V7)
- Sequence (Q653V7 34-885): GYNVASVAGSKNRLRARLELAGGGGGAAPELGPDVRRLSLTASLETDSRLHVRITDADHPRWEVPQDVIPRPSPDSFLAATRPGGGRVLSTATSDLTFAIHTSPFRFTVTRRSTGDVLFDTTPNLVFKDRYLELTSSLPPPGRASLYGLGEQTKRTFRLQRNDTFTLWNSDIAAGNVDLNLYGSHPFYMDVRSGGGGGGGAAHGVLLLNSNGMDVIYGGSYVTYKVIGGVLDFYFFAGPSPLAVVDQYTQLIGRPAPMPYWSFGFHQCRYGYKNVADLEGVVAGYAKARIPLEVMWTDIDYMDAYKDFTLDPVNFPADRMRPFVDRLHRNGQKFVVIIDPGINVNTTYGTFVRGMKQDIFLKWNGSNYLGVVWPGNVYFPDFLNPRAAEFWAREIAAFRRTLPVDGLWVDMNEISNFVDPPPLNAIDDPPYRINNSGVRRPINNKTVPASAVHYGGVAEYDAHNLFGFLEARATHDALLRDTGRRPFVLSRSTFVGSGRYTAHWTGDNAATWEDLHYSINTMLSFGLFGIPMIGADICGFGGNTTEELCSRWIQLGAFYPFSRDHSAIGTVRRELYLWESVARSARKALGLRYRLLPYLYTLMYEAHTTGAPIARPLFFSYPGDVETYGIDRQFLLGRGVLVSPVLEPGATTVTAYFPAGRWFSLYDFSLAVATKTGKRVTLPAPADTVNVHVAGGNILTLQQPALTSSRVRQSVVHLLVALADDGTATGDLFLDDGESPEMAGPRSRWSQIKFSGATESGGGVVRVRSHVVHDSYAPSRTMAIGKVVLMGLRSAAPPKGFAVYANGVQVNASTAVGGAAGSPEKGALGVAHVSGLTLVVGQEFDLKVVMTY
measuredEndpoint: pIC50
Give bare numbers, as −log10 of the molar value.

Enquiry: I would be grateful if you could share the reported pIC50 for OCCN1C[C@H](O)[C@@H](O)[C@H](O)[C@H]1CO [Miglitol, miglitol, reference compound] .
Return: 6.77
